Values compiled from the OligoGym collection.

normalised inhibition (eCFP-eYFP dual reporter) values by entry
targetEntity: UFC1
procedureText: reporter assay of Huesken 2005; note: test concentration or dose not given here
conditionLabel: siRNA
Oligonucleotides are written 5' to 3', each unit as a sugar letter and its base; * is a phosphorothioate linkage, no mark a phosphodiester; rarer units and linkages stand in square brackets, end groups in braces. Plain capitals give the bases only. d = 2'-deoxy (DNA); r = 2'-OH (RNA)
observationType: normalised inhibition (eCFP-eYFP dual reporter) (%)

> print(dat)
                                   substance   val
 1  sense rCrGrUrCrArUrCrCrArArCrArCrArArArGrArGdTdT / antisense rCrUrCrUrUrUrGrUrGrUrUrGrGrArUrGrArCrGdCdC  86.3
 2  sense rArCrCrUrCrCrUrGrArArArUrArUrGrArGrUrUdTdT / antisense rArArCrUrCrArUrArUrUrUrCrArGrGrArGrGrUdCdA  43.5
 3  sense rUrGrArArArUrArUrGrArGrUrUrUrGrArCrArUdTdT / antisense rArUrGrUrCrArArArCrUrCrArUrArUrUrUrCrAdGdG  75.3
 4  sense rUrGrArCrArArCrGrArUrUrGrGrUrUrCrCrGrAdTdT / antisense rUrCrGrGrArArCrCrArArUrCrGrUrUrGrUrCrAdGdC  76.1
 5  sense rGrArArCrUrCrGrGrUrGrGrUrUrUrGrGrArArAdTdT / antisense rUrUrUrCrCrArArArCrCrArCrCrGrArGrUrUrCdCdT  97.7
 6  sense rArCrArArCrArArGrArArUrGrCrUrGrArCrArAdTdT / antisense rUrUrGrUrCrArGrCrArUrUrCrUrUrGrUrUrGrUdTdC  86.4
 7  sense rUrGrGrUrUrCrCrGrArCrUrGrGrArGrUrCrCrAdTdT / antisense rUrGrGrArCrUrCrCrArGrUrCrGrGrArArCrCrAdAdT  71.9
 8  sense rGrCrGrArCrUrGrArArGrGrArGrGrArArUrArUdTdT / antisense rArUrArUrUrCrCrUrCrCrUrUrCrArGrUrCrGrCdTdG   107
 9  sense rGrUrArUrArUrCrCrArUrGrArCrCrUrCrCrUrGdTdT / antisense rCrArGrGrArGrGrUrCrArUrGrGrArUrArUrArCdCdA    96
10  sense rArGrUrCrCrCrUrUrArUrCrCrGrGrUrArUrGrUdTdT / antisense rArCrArUrArCrCrGrGrArUrArArGrGrGrArCrUdGdA  74.6
11  sense rCrUrGrArCrGrGrArUrCrArUrUrUrCrArArArCdTdT / antisense rGrUrUrUrGrArArArUrGrArUrCrCrGrUrCrArGdGdC  65.7
12  sense rUrGrArCrArUrUrCrCrUrArUrCrArCrArUrArUdTdT / antisense rArUrArUrGrUrGrArUrArGrGrArArUrGrUrCrAdAdA   115

====

targetEntity: UBE2C
procedureText: reporter assay of Huesken 2005
conditionLabel: siRNA
Oligonucleotides are written 5' to 3', each unit as a sugar letter and its base; * is a phosphorothioate linkage, no mark a phosphodiester; rarer units and linkages stand in square brackets, end groups in braces. Plain capitals give the bases only. d = 2'-deoxy (DNA); r = 2'-OH (RNA)
Recorded normalised inhibition (eCFP-eYFP dual reporter) by entry
observationType: normalised inhibition (eCFP-eYFP dual reporter) (%)

> print(dat)
                                  substance  targetentity   val
1  sense rCrArUrCrCrArGrArGrCrCrUrUrCrUrArGrGrAdTdT / antisense rUrCrCrUrArGrArArGrGrCrUrCrUrGrGrArUrGdGdA         UBE2C  78.6
2  sense rArCrArUrUrGrArUrArGrUrCrCrCrUrUrGrArAdTdT / antisense rUrUrCrArArGrGrGrArCrUrArUrCrArArUrGrUdTdG         UBE2C  90.8
3  sense rArArGrUrUrCrCrUrCrArCrGrCrCrCrUrGrCrUdTdT / antisense rArGrCrArGrGrGrCrGrUrGrArGrGrArArCrUrUdCdA         UBE2C    51
4  sense rUrArGrArGrUrUrCrCrCrCrArGrUrGrGrCrUrAdTdT / antisense rUrArGrCrCrArCrUrGrGrGrGrArArCrUrCrUrAdGdC         UBE2C  67.2
5  sense rCrCrCrArGrUrGrGrCrUrArCrCrCrUrUrArCrAdTdT / antisense rUrGrUrArArGrGrGrUrArGrCrCrArCrUrGrGrGdGdA         UBE2C  85.7
6  sense rCrCrUrGrUrArUrGrArUrGrUrCrArGrGrArCrCdTdT / antisense rGrGrUrCrCrUrGrArCrArUrCrArUrArCrArGrGdGdC         UBE2C    42
